Assay: Cytotoxicity against human HeLa cells assessed as inhibition of cell growth by cell viability assay
Type: toxicity, cell-based
Group membership follows GI50 per the scheme LOW: < 9 µg/mL; MEDIUM: ≥ 9 µg/mL and < 20 µg/mL; HIGH: ≥ 20 µg/mL

INSERT INTO assay_data (smiles_entry, group) VALUES
  ('Fc1ccc(Nc2nc3nonc3nc2Nc2ccc(F)cc2)cc1', 'MEDIUM');

[ask] Bin this entry: Cc1cccc(Nc2nc3nonc3nc2Nc2cccc(OC(F)(F)F)c2)c1
[reply] MEDIUM

[ask] Place this compound in its band: c1ccc(Nc2nc3nonc3nc2Nc2ccccc2)cc1
[reply] LOW

[ask] Category of Cc1cccc(Nc2nc3nonc3nc2Nc2cccc(C)c2)c1 , please.
[reply] MEDIUM

[ask] Category of FC(F)(F)Oc1cccc(Nc2nc3nonc3nc2Nc2cccc(OC(F)(F)F)c2)c1 :
[reply] LOW

[ask] Which band does Oc1nc2nonc2nc1Nc1cccc(OC(F)(F)F)c1 fall in?
[reply] HIGH

[ask] Hi, small favor: classify Cc1ccc(Nc2nc3nonc3nc2Nc2ccc(C)cc2)cc1 by its GI50 when you get a moment.
[reply] MEDIUM

[ask] Could you tell me which band FC(F)(F)Oc1ccc(Nc2nc3nonc3nc2Nc2ccc(OC(F)(F)F)cc2)cc1 belongs to?
[reply] LOW

* * *

Assay: Selectivity index, ratio of GI50 for cytotoxicity against human HeLa cells to MRC for Potentiation of colistin-induced antibacterial activity against Escherichia coli AR0493 harboring mcr-1 plasmid
Type: toxicity, cell-based
Settings: read-out: Selectivity Index
REPORTED METRIC: selectivity ratio
The response must contain the number and no unit.

INSERT INTO measurements (smiles_entry, recorded_result) VALUES
  ('Clc1cccc(Nc2nc3nonc3nc2Nc2cccc(Cl)c2)c1', 44),
  ('FC(F)(F)Oc1cccc(Nc2nc3nonc3nc2Nc2cccc(OC(F)(F)F)c2)c1', 17),
  ('c1ccc(Nc2nc3nonc3nc2Nc2ccccc2)cc1', 8.8),
  ('Cc1cccc(Nc2nc3nonc3nc2Nc2cccc(OC(F)(F)F)c2)c1', 24),
  ('Fc1cccc(Nc2nc3nonc3nc2Nc2cccc(F)c2)c1', 40);

Continue with the molecule presented below.
[ask] Supply selectivity ratio value. Item: Cc1cccc(Nc2nc3nonc3nc2Nc2cccc(C)c2)c1
[reply] 30

* * *

Test: Selectivity index, ratio of GI50 for cytotoxicity against human HeLa cells to MRC for Potentiation of colistin-induced antibacterial activity against Escherichia coli AR0493 harboring mcr-1 plasmid
Type: toxicity, cell-based
Settings: read-out: Selectivity Index
Answer Not fulfilled if selectivity ratio is under 20, and Fulfilled if it is 20 or more.

Recorded results for 5 compounds are shown here.
INSERT INTO results (smiles_entry, group) VALUES
  ('Cc1ccc(Nc2nc3nonc3nc2Nc2ccc(C)cc2)cc1', 'Fulfilled'),
  ('Clc1ccc(Nc2nc3nonc3nc2Nc2ccc(Cl)cc2)cc1', 'Fulfilled'),
  ('FC(F)(F)Oc1ccc(Nc2nc3nonc3nc2Nc2ccc(OC(F)(F)F)cc2)cc1', 'Fulfilled'),
  ('COc1ccccc1Nc1nc2nonc2nc1O', 'Fulfilled'),
  ('Oc1nc2nonc2nc1Nc1cccc(OC(F)(F)F)c1', 'Not fulfilled');

Alright, here's another compound for you.
[ask] Is selectivity ratio at least 20? Consider Fc1ccc(Nc2nc3nonc3nc2Nc2ccc(F)cc2)cc1
[reply] Not fulfilled

Measured values drawn from ChEMBL document CHEMBL5113472 for this set.
